- Tested on: COLO 205 colon
- methodNotes: NCI tumour cell line growth inhibition, 48 h
TGI by entry:
testReadout: TGI

compound	experimentalResult
O=c1c2ccccc2sc2ccccc12	> 100 µM
CCCCCCCCCCCCCC[n+]1cccc(C(N)=O)c1	2.72 µM
O=[N+]([O-])c1ccc(-c2cc3c(Nc4ccc(Cl)c(C(F)(F)F)c4)ncnc3s2)cc1	3.35 µM
CC(C)/C(Cl)=N/OC(=O)Nc1ccc(OC(F)(F)F)cc1	3.26 µM
COc1cccc(COc2cc(-n3cnc4ccccc43)sc2C(N)=O)c1	> 25 µM
O=C(O)CN(CC(=O)O)C(C(=O)O)c1ccccc1 (configuration not stated)	> 100 µM
O=C(O)/C=C\C(=O)Nc1ccc(S(=O)(=O)c2ccc(NC(=O)/C=C\C(=O)O)cc2)cc1	> 100 µM
O=C(CC(=O)Nc1ccccc1)NNC(c1cc(N=Nc2ccc(Br)cc2)ccc1O)P(O)O (configuration not stated)	> 10 µM
CCOC(=O)c1sc2ncnc(N)c2c1C	> 100 µM
Cc1cccc(N(CC(=O)O)S(=O)(=O)c2ccccc2)c1	> 100 µM
C[C@H]1[C@H](C)CC[C@]2(C(=O)OC3OC(CO)C(O)C(O)C3O)CC[C@]3(C)C(=CC[C@@H]4[C@@]5(C)C[C@H]6OC(=O)c7cc(O)c(O)c(O)c7-c7c(cc(O)c(O)c7O)C(=O)O[C@@H]6C(CO)(CO)[C@@H]5CC[C@]43C)[C@H]12 (some centres not stated)	> 100 µM
CCCCCCC(C)CCCCCCCCCCC(=O)O (configuration not stated)	> 100 µM
Cc1cccc(C)c1N1C(=O)C(=O)C(c2nc3ccccc3s2)C(=Nc2cccc3c(=O)[nH][nH]c(=O)c23)C1=O (configuration not stated)	> 100 µM
COc1ccc(C2Oc3c(c(O)cc4c3[C@H](c3ccc(O)cc3O)[C@H](O)C(c3ccc(O)c(O)c3)O4)C[C@@H]2O)cc1O (some centres not stated)	> 100 µM
CON(C)C(=O)C1CCCO1 (configuration not stated)	> 100 µM
C[n+]1c(/C=C/c2ccc(O)c3ncccc23)[se]c2ccccc21	22.2 µM
O=C1c2cccc3cccc(c23)C(=O)N1O	> 100 µM

* * *

Catalogue of compounds with associated TGI
- Test system: HOP-92 NSCLC
- methodNotes: NCI tumour cell line growth inhibition, 48 h
testReadout: TGI (µM)

                                   compound           tgt  resultqualifier  experimentalresult
0  N#C/C(=C1\SC(N=Nc2ccc(Cl)cc2)C(=O)N1c1ccccc1)c1nc2ccccc2[nH]1 (stereo unspecified)  HOP-92 NSCLC                =                51.9
1        Cc1c(-c2ccccc2)[nH]n(C2=NCCN2)c1=O  HOP-92 NSCLC                >                 100
2                Clc1nncc2sc(-c3ccccc3)nc12  HOP-92 NSCLC                =                  24
3  O=C(O)CN(CC(=O)O)C(C(=O)O)c1ccccc1 (stereo unspecified)  HOP-92 NSCLC                >                 100
4  COc1ccc2c(c1)c(=O)c1c(NCCNCCO)ccc3c(=O)n(CCN(C)C)c(=O)n2c31  HOP-92 NSCLC                =               0.775
5  CC1(C)OC2COC3([C@@H]4OC(C)(C)O[C@@H]4CO)OC(C)(C)OC3C2O1 (stereo partly specified)  HOP-92 NSCLC                >                 100

* * *

Item-by-item account of TGI
- System: HCT-15 colon
- methodNotes: NCI tumour cell line growth inhibition, 48 h
testReadout: TGI (µM)

>>> df
                                    molecule  testreadout  resultqualifier  experimentalresult
 0     CON(C)C(=O)C1CCCO1 (stereo not given)          TGI                >                 100
 1  c1cnn2ncc(-c3ccnc(Nc4ccc5c(c4)OCCO5)n3)c2c1          TGI                >                  25
 2         CCCCCCCCCCCCCC[n+]1cccc(C(N)=O)c1          TGI                =                58.3
 3  CC1(C)CC(=O)C(CC2C(=O)c3ccccc3C2=O)C(=O)C1          TGI                >                 100
 4  C[C@]12C/C(=C/O)C(=O)C(O)=C1CC[C@@H]1C2CC[C@@]2(C)C1CC[C@@H]2O (stereo not given in full)          TGI                =                61.5
 5  CCNCCNc1cc(-c2ccc(C#N)cc2)c(C#N)c2nc3ccccc3n12          TGI                =                  11
 6  O=S1SC(=S)C2C=CC=CC21 (stereo not given)          TGI                >                 100
 7  CC(C)Oc1ccc(C(=O)Cn2ccnc2)cc1-n1c(CN2CCN(C(=O)COc3ccc(Cl)cc3)CC2)nc2ccccc2c1=O          TGI                =                32.6
 8  C=CC1=C(C)C2=NC1=CC1=NC(=CC3=C(C)C4=C(O)[C@H](C(=O)OC)C(=C5NC(=C2)[C@@H](C)[C@@H]5CCC(=O)O)C4=N3)C(CC)=C1C          TGI                =                9.72
 9  Cc1c(C(=O)/C=C/c2ccccc2[N+](=O)[O-])[n+](=O)c2ccccc2n1[O-]          TGI                =                12.6
10  c1ccc([P+](CCCCCCCC[P+](c2ccccc2)(c2ccccc2)c2ccccc2)(c2ccccc2)c2ccccc2)cc1          TGI                >                 100
11  CCOC(OC1=C(C#N)CCCC1)C(CC)[Se]c1ccccc1 (stereo not given)          TGI                =                  33
12  O=C(O)/C=C\C(=O)Nc1ccc(S(=O)(=O)c2ccc(NC(=O)/C=C\C(=O)O)cc2)cc1          TGI                >                 100
13  O=C1C=CC(=O)C(CNc2ccc(C(=O)OCc3ccccc3)cc2)=C1          TGI                =                 9.1
14  CC(C)(C)NCC(COc1ccc([N+](=O)[O-])cc1)OP(c1ccccc1)c1ccccc1 (stereo not given)          TGI                >                 100
15  CCN(CCCl)c1cc(CN(C)C)cc(NC(=O)c2ccc(C(=O)Nc3cccc(CN(C)C)c3)cc2)c1          TGI                >                 100
16  COP(=O)(OC)C(Nc1ccc(Cc2ccc(NC(c3ccco3)P(=O)(OC)OC)cc2)cc1)c1ccco1 (stereo not given)          TGI                >                 100
17  O=C1/C(=C/c2cccc([N+](=O)[O-])c2)Sc2scc(-c3ccc([N+](=O)[O-])cc3)[n+]21          TGI                =                33.6
18  CCOC(=O)c1ccc(Nc2nc3ccc(C(F)(F)F)cc3nc2C(=O)OCC)cc1          TGI                >                 100
19  COc1cc(/C=C2\CCC(C)/C(=C\c3cc(OC)c(OC)c(OC)c3)C2=O)cc(OC)c1OC (stereo not given)          TGI                =                6.57

* * *

- Test system: NCI-H522 lung
- methodNotes: NCI tumour cell line growth inhibition, 48 h; in the data active = GI50 below about 0.43 µM; inactive = the rest
Possible outcomes: 1 for active, 0 for inactive

                                   compound  cat
0  O=C(NCCN1CCNCC1)c1ccc(Nc2nc3ccccc3c3occc23)cc1    0
1  COc1ccc(-c2cnoc2-c2cc(OC)c3c(c2)OCCO3)cc1    1
2                    OCc1ccc(N2CCOCC2)cc1Cl    0
3  C/C1=C\CC[C@@](C)(O)[C@@H]2C[C@H](CC/C(C)=C/CC1)C1(CC1)C(=O)O2    0
4  COc1ccc(Nc2nccc(N3CCN(c4c5ccc(Cl)cc5nc5ccc(OC)cc45)CC3)n2)cc1    0
5  COc1cccc(COc2cc(-n3cnc4ccccc43)sc2C(N)=O)c1    0
6  COc1cc2nc(-c3ccc(C(F)(F)F)cc3)cc(OCCCN3CCCC3)c2cc1OC    0
7  c1cnn2ncc(-c3ccnc(Nc4ccc5c(c4)OCCO5)n3)c2c1    1
8  CC1c2ccccc2N=C2SC(=S)N3CCN=C3N21 (stereo not given)    0
9  N.N.N.N.N.O=S(=O)([O-])S(=O)(=O)[O-].[Co+3]    0
